Molecular target: Serotonin 1 (5-HT1) receptor (Rattus norvegicus, UniProt P28564+P30940+P19327+P28565)
Assay: The compound was tested for its binding affinity towards 5-hydroxytryptamine 1 receptor by displacing [3H]5-HT radioligand in rat cerebral cortex
Type: tissue-based
REPORTED METRIC: Ki (nM)
Report as a plain number; the unit nM is understood.

Use these answered entries as a reference point.
COMPOUND STRUCTURE STRING	REPORTED METRIC	UNIT ABBREV	RECORDED RESULT
CC(C)Oc1ccccc1N1CCN(Cc2ccc(CN3CCCCCCC3=O)n2C)CC1	Ki	nM	18.1
CC(C)Oc1ccccc1N1CCN(Cc2ccc(CN3CCCCC3=O)[nH]2)CC1	Ki	nM	33.1
CC(C)Oc1ccccc1N1CCN(Cc2ccc(CN3CCCCCC3=O)n2C)CC1	Ki	nM	68.8
CC(C)c1ccccc1N1CCN(Cc2ccc(CN3CCCCCCC3=O)n2C)CC1	Ki	nM	50.2
COc1ccccc1N1CCN(Cc2ccc(CN3CCCCC3=O)n2C)CC1	Ki	nM	139

May I ask what Ki has been recorded for CCCCOc1ccccc1N1CCN(Cc2ccc(CN3CCCCCC3=O)n2C)CC1 ?
58.9

Continue with CC(C)c1ccccc1N1CCN(Cc2ccc(CN3CCCC3=O)n2C)CC1
76

Continue with Cc1ccccc1N1CCN(Cc2ccc(CN3CCCC3=O)n2C)CC1
1000

Continue with COc1ccccc1N1CCN(Cc2ccc(CN3CCCCCCC3=O)n2C)CC1
41

Continue with Cn1c(CN2CCN(c3ccccc3C#N)CC2)ccc1CN1CCCC1=O
140

Continue with CCc1ccccc1N1CCN(Cc2ccc(CN3CCCC3=O)n2C)CC1
304

Continue with Cn1c(CN2CCN(c3cccc(Cl)c3)CC2)ccc1CN1CCCC1=O
196

Continue with Cn1c(CN2CCN(c3cccc(C(F)(F)F)c3)CC2)ccc1CN1CCCC1=O
156

Continue with CC(C)c1ccccc1N1CCN(Cc2ccc(CN3CCCCCC3=O)n2C)CC1
82.1

Continue with COc1ccccc1N1CCN(Cc2ccc(CN3CCCCCC3=O)n2C)CC1
120

Continue with COc1ccccc1N1CCNCC1
28

Continue with CC(C)Oc1ccccc1N1CCN(Cc2ccc(CN3CCCC3=O)n2C)CC1
120

Continue with CCc1ccccc1N1CCN(Cc2ccc(CN3CCCCC3=O)n2C)CC1
27.3

Continue with COc1ccccc1N1CCN(Cc2ccc(CN3CCCC3=O)n2C)CC1
185

====

Target: Adrenergic receptor alpha-1 (Rattus norvegicus, UniProt P15823+P23944+P43140)
Assay: The compound was tested for its binding affinity towards Alpha-1 adrenergic receptor by displacing [3H]WB-4101 radioligand in rat cerebral cortex
Format: tissue-based
REPORTED METRIC: Ki (µM)
Report as a plain number; the unit µM is understood.

Use these answered entries as a reference point.
COMPOUND STRUCTURE STRING	REPORTED METRIC	RECORDED RESULT
Cn1c(CN2CCN(c3ccccc3O)CC2)ccc1CN1CCCC1=O	Ki	0.14
CC(C)c1ccccc1N1CCN(Cc2ccc(CN3CCCCCC3=O)n2C)CC1	Ki	0.0539
Cn1c(CN2CCN(c3cccc(Cl)c3)CC2)ccc1CN1CCCC1=O	Ki	0.264

May I ask what Ki has been recorded for Cc1ccccc1N1CCN(Cc2ccc(CN3CCCC3=O)n2C)CC1 ?
0.136

Continue with CN1CCN(CCCN2c3ccccc3Sc3ccc(C(F)(F)F)cc32)CC1
0.0293

Continue with CC(C)Oc1ccccc1N1CCN(Cc2ccc(CN3CCCCC3=O)[nH]2)CC1
0.0052
